Biological target: PI3K (p110α/p85α) (Homo sapiens (Human), UniProt P42336)
Sequence (P42336 whole entry, species assumed): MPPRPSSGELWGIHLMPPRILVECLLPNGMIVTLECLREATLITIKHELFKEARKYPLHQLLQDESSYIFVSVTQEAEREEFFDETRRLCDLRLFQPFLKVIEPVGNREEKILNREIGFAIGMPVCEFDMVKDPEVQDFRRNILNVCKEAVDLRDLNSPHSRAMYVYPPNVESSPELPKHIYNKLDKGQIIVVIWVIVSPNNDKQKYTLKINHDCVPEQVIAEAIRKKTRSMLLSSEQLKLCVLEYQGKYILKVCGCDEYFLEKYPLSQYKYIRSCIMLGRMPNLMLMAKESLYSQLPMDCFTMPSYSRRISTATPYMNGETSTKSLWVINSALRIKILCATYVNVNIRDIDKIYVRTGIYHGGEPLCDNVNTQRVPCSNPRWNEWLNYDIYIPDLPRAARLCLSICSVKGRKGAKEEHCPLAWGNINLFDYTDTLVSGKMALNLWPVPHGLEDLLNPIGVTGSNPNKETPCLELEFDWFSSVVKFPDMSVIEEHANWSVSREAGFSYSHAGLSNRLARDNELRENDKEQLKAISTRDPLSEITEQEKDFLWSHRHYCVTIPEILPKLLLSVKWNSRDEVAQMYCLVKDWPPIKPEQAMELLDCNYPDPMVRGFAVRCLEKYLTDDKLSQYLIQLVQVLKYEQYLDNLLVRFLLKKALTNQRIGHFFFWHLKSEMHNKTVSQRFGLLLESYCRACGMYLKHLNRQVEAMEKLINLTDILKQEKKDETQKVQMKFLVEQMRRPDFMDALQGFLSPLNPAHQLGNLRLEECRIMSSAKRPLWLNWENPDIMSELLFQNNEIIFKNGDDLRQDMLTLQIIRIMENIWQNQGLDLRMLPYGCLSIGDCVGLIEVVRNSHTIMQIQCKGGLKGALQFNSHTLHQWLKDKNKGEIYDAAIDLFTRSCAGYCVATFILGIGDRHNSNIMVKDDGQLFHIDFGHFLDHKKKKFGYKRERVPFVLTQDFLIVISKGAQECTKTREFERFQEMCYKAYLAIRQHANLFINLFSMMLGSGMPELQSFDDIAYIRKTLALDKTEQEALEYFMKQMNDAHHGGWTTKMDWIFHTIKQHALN
Sequence (P27986 whole entry partner, species assumed): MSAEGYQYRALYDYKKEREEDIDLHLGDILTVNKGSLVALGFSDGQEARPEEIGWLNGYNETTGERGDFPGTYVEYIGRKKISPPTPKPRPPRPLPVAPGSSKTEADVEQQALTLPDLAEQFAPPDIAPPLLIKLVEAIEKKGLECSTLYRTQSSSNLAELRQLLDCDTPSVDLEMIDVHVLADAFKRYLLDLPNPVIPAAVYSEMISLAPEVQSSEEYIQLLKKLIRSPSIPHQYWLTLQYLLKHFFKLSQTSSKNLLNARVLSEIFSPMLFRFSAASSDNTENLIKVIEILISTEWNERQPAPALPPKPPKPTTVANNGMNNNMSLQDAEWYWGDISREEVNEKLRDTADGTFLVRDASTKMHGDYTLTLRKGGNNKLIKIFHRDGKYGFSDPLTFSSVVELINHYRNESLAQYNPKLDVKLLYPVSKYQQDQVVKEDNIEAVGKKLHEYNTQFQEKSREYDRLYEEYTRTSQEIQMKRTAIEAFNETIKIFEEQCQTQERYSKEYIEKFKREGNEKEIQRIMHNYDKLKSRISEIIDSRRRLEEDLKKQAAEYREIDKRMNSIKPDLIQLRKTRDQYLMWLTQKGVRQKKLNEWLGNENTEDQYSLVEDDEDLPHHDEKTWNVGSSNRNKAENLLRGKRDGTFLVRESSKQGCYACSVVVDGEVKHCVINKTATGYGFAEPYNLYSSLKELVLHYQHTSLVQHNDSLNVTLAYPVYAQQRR
Assay: PI3K HTRF enzyme assay, p110α/p85α
Type: biochemical
Conditions: read-out: % inhibition @ 500 nM p110α; compound at 500 nM, 10 μM ATP
measure.name: inhibition at 0.5 µM (%)

Here's what some known entries look like.
* CSc1cnc(-c2ccc(NC(=O)Nc3ccc(NS(C)(=O)=O)cc3)cc2)nc1N1CCOCC1 | 79.4
* NC(=O)c1ccc(NC(=O)Nc2ccc(-c3ncc(OCCN4CCOCC4)c(N4CCOCC4)n3)cc2)cc1 | 52.6
* CCOC(=O)c1nc(-c2ccc(NC(=O)Nc3ccc(C(=O)NCCN(C)C)cc3)cc2)nc(N2CCOCC2)c1OCC | 61.9
* CSc1cnc(-c2ccc(NC(=O)Nc3ccccc3)cc2)nc1N1CCOCC1 | 102

I = COc1cnc(-c2ccc(NC(=O)Nc3ccc(C(N)=O)cc3)cc2)nc1N1CCOCC1
II = CSc1c(Cl)nc(-c2ccc(NC(N)=O)cc2)nc1N1CCOCC1
# input Of I and II , which shows the smaller inhibition at 0.5 µM value? Your choice should be expressed through its label.
# output II
(II: 44.8%, I: 76.8%)

###

Molecular target: PI3K (p110α/p85α) (Homo sapiens (Human), UniProt P42336)
Assay: PI3K HTRF enzyme assay, p110α/p85α
Type: biochemical
Settings: read-out: % inhibition @ 500 nM p110α; compound at 500 nM, 10 μM ATP
Procedure: Recombinant PI3K (p110α/p85α) and PI3K (p110β/p85α) were from Millipore. […] Briefly, the compounds of interest dissolved in 100% DMSO were dispensed in all wells, following which the mixture of PIP2 and enzyme was added. PI3K (p110α/p85α) and PI3K (p110β/p85α) enzyme reactions were initiated in the presence of 10 μM and 100 μM ATP, respectively, and incubated for 30 min at room temperature. […] HTRF ration was calculated as follows: […]
measure.name: inhibition at 0.5 µM (%)

// solved cases for inhibition at 0.5 µM follow
- CCOc1cnc(-c2ccc(NC(=O)Nc3ccncc3)cc2)nc1N1CCOCC1: 66.3
- CSc1c(Cl)nc(-c2ccc(NC(=O)Nc3ccc(C(=O)N4CCOCC4)cc3)cc2)nc1N1CCOCC1: 106
- COc1cnc(-c2ccc(NC(=O)Nc3ccc(NS(C)(=O)=O)cc3)cc2)nc1N1CCOCC1: 75.4

1 = CCOC(=O)c1nc(-c2ccc(NC(=O)Nc3cccc(F)c3)cc2)nc(N2CCOCC2)c1OCC
2 = CSc1c(N2CCOCC2)nc(-c2ccc(NC(=O)Nc3ccccc3)cc2)nc1N1CCN(S(C)(=O)=O)CC1
# input Form: Entry with minimum inhibition at 0.5 µM (choose one): 1 / 2 Return value: the label identifying the chosen record.
# output 1

1 = CSc1cnc(-c2ccc(NC(=O)Nc3ccc(F)cc3)cc2)nc1N1CCOCC1
2 = CCOc1cnc(-c2ccc(NC(=O)Nc3ccc(N4CCOCC4=O)cc3)cc2)nc1N1CCOCC1
# input Please let me know which one, 1 or 2 , has a lower measured inhibition at 0.5 µM value. Lab note: record the label of whichever item you select.
# output 1

A = COc1cnc(-c2ccc(NC(=O)Nc3ccc(N4CCOCC4)c(F)c3)cc2)nc1N1CCOCC1
B = COc1cnc(-c2ccc(NC(=O)Nc3ccc(C(=O)O)cc3)cc2)nc1N1CCOCC1
# input Given A and given B , which shows the smaller recorded inhibition at 0.5 µM? Indicate which entry you chose by stating its label.
# output B
(B: 52.3%, A: 96.3%)

P = CSc1cnc(-c2ccc(NC(=O)Nc3ccc(S(N)(=O)=O)cc3)cc2)nc1N1CCOCC1
Q = CCOC(=O)c1nc(-c2ccc(NC(=O)Nc3ccccc3)cc2)nc(N2CCOCC2)c1OCC
# input P or Q : whose inhibition at 0.5 µM is greater? Respond using the label that marks the chosen record.
# output P
